assay: Cytotoxicity against human Huh7.5 cells infected with HCV genotype 4a assessed as morphological changes after 72 hrs by inverted light microscopy; format: cell-based, Huh-7
Measured CC50 at 72 h of individual entries
Give the quantity in µM, number only.

// recorded CC50 at 72 h for Cc1ccc(Nc2ncnc3c2c(-c2ccccc2)c(-c2ccccc2)n3C2CCCCC2)cc1 : 153

// recorded CC50 at 72 h for COc1ccc(/C=N/Nc2ncnc3c2c(-c2ccccc2)c(-c2ccccc2)n3C2CCCCC2)cc1 : 140

// recorded CC50 at 72 h for O=c1[nH]cnc2c1c(-c1ccccc1)c(-c1ccccc1)n2-c1ccc(Cl)cc1 : 151

// recorded CC50 at 72 h for Cc1cccc(Nc2ncnc3c2c(-c2ccccc2)c(-c2ccccc2)n3C2CCCCC2)c1 : 131

// recorded CC50 at 72 h for Cc1nnc2c3c(-c4ccccc4)c(-c4ccccc4)n(C4CCCCC4)c3ncn12 : 172
